EXPERIMENTAL PROTOCOL: Inhibition of HCV NS5B RB01 polymerase
Parameters: species or system Hepacivirus hominis
The following molecules are shown together with reported IC50 values.
REPORTED METRIC: IC50 (µM)

* CC(C)C[C@@]1(C(=O)O)C[C@H](C(=O)O)[C@H](c2cccs2)N1C(=O)c1ccc(C(F)(F)F)cc1 (stereo in doubt; 1) | 20
* CC(C)C[C@@]1(C(=O)O)C[C@H](C(=O)Nc2ccccc2)[C@H](c2nccs2)N1C(=O)c1ccc(C(C)(C)C)cc1 (stereo in doubt; 41) | 3.1
* CC(C)C[C@@]1(C(=O)O)C[C@H](C(=O)NS(=O)(=O)c2ccccc2)[C@H](c2nccs2)N1C(=O)c1ccc(C(C)(C)C)cc1 | 3.15
* CC(C)C[C@@]1(C(=O)O)C[C@H](C(=O)O)[C@H](c2nccs2)N1C(=O)c1ccc(C(C)(C)C)cc1 (stereo in doubt; 28) | 3.8
* CC(C)C[C@@]1(C(=O)O)C[C@H](C(=O)O)[C@H](c2cccs2)N1C(=O)c1ccc(C(F)(F)F)cc1 (stereo in doubt; (+)-1) | 11.9
